tested on: MDA-MB-435; experiment: NCI tumour cell line growth inhibition, 48 h
Calls of active or inactive are those of the source. Cut-off read from the data, not from the text of the source: active = GI50 up to about 1.1 µM and inactive = higher.
Outcome field: choose from class 1 = active, class 0 = inactive

Field: example entries. Status: answers known.
> print(dat)
                                   compound  category.label
1           CC1=CC(=O)/C(=C/NC(N)=S)C(=O)O1         class 0
2             CC(=O)C(=[N+]=[N-])C(=O)NCC#N         class 0
3  CC(C)(C)[Si](C)(C)OCC1OC(n2ccc(=O)[nH]c2=O)C(O[Si](C)(C)C(C)(C)C)[C@@]12O[C@H]2C(N)=O (stereo not given in full)         class 0
4  O=C1c2c(ccc3c2CCCC3)CC12Cc1ccc3c(c1C2=O)CCCC3         class 0
5  CC1CC(=O)N(N(C)C)C(C#N)(C#N)C1(C#N)C#N (stereo not given)         class 0
6  CC(C)=CCC/C(=C/CC/C(=C\CCc1ccoc1)C(=O)O)C(=O)O         class 0
7    CN(C)Cc1cc(/N=N/c2ccccc2)cc(CN(C)C)c1O         class 0
8  COc1ccc(-c2nc(-c3ccc(OC)cc3)n(-c3ccccc3)n2)cc1         class 0

Prompt: Kindly provide the recorded test outcome for the following compound: O=C(/C=C/c1ccco1)CC(=O)/C=C/c1ccco1
Response: class 0

Prompt: Kindly provide the recorded test outcome for the following compound: Cc1nc2ccc(F)cc2c2c1CCN2c1ccc(Cl)cc1
Response: class 0

Prompt: Kindly provide the recorded test outcome for the following compound: CC(=O)c1ccc2c(c1)C(=O)c1sc(C(C)=O)cc1C2=O
Response: class 0

Prompt: Kindly provide the recorded test outcome for the following compound: NS(=O)(=O)c1ccc(Nc2c3ccccc3nc3c(C(=O)NCCCN(CCO)CCO)cccc23)cc1
Response: class 0

Prompt: Kindly provide the recorded test outcome for the following compound: C/C(=N\Nc1nc2ccccc2[nH]1)c1ncccn1
Response: class 1

Prompt: Kindly provide the recorded test outcome for the following compound: CNC=O
Response: class 0

Prompt: Kindly provide the recorded test outcome for the following compound: CC(=O)Oc1cc2c(c3ncccc13)OC(C)(C)C2
Response: class 0

---

system: OVCAR-3; assay: NCI tumour cell line growth inhibition, 48 h
Active and inactive are the calls of the source. Cut-off read from the data, not from the text of the source: active = GI50 up to about 1.1 µM and inactive = higher.
Outcome field: choose from yes (1) (active), no (0) (inactive)

> print(dat)
                                   compound  subject.of.test  category.label
1  C/C1=C\[C@H](C)C[C@H](C)OC(=O)[C@H](C)NC(=O)[C@@H](Cc2ccc(O)c(Br)c2)N(C)C(=O)[C@H](C)NC(=O)[C@@H](C)C1          OVCAR-3         yes (1)
2            O=c1c2cccnc2cc(-c2ccccc2)n1CCO          OVCAR-3          no (0)
3  O/N=C(\CC(O)(C(F)(F)F)C(F)(F)F)c1cccc(Cl)c1          OVCAR-3          no (0)
4  COc1ccc(OC(=O)CC2Cc3cc(OC)c(OC)c(OC)c3-c3ccc(SC)c(=O)cc32)cc1 (centres undefined)          OVCAR-3         yes (1)
5  CCCCCCCCCCCCCCCCCC(=O)OCC(CN(C)CCN(C)C)OC(=O)CCCCCCCCCCCCCCCCC (centres undefined)          OVCAR-3          no (0)

Prompt: Kindly provide the recorded test outcome for the following compound: NC(=O)C1CCCNC1 (centres undefined)
Response: no (0)

Prompt: Kindly provide the recorded test outcome for the following compound: S=C1c2ccc(Cl)cc2-n2cnnc2C2CSCN12 (centres undefined)
Response: no (0)

Prompt: Kindly provide the recorded test outcome for the following compound: C/C1=C\[C@H](C)C[C@H](C)OC(=O)C[C@H](c2ccc(O)cc2)NC(=O)[C@H](Cc2ccc(O)c(I)c2)N(C)C(=O)[C@H](C)NC(=O)[C@@H](C)C1
Response: yes (1)

Prompt: Kindly provide the recorded test outcome for the following compound: CCOC(=O)c1cn2c(n1)sc1cc(F)ccc12
Response: no (0)

---

test system: SNB-19; assay: NCI tumour cell line growth inhibition, 48 h
Activity calls are given as the source filed them. Cut-off read from the data, not from the text of the source: active = GI50 up to about 1.1 µM and inactive = higher.
GI50 for assorted compounds

Solved entries:
> print(dat)
                                   compound               result
1     CCOc1ccccc1C=C1c2ccccc2C(=O)c2ccccc21   3.63 µM (inactive)
2  O=C1CCC2(c3ccc(Cl)cc3)Nc3cc(Cl)ccc3N12 (configuration not stated)   16.4 µM (inactive)
3  CN(CCNC(=O)c1cn(C)c2c1ccc1cc(Cl)c(Cl)cc12)CCNC(=O)c1cn(C)c2c1ccc1cc(Cl)c(Cl)cc12   2.08 µM (inactive)
4  CCOC(CCCN1CCC2(CC1)C(=O)N(C)CN2c1ccccc1)(OCC)c1ccc(F)cc1   10.2 µM (inactive)
5  N=C(N)SCc1ccc(Cl)c2ccccc12.O=[N+]([O-])c1c(O)c(Cl)cc(Cl)c1Cl   14.4 µM (inactive)
6  COc1ccc(C2=CN3CCC[C@H]3C=C2c2cc(O)c(OC)c(OC)c2)cc1OC  0.00309 µM (active)
7    CCOC(=O)c1cc2c([N+](=O)[O-])c(N)ccc2s1  > 100 µM (inactive)
8   Cn1c(Sc2ccc(-c3cccnc3)n2C)ccc1-c1cccnc1   19.6 µM (inactive)

Entry C/C=C\C(CC(=O)O)CN1CCC2=C(C1)C(S(=O)(=O)C(F)(F)F)c1ccccc12 (configuration not stated) , GI50 reported as > 100 µM (inactive)

Entry CCOP(=O)(OCC)c1cc2cc(O)ccc2oc1=O , GI50 reported as > 100 µM (inactive)

Entry COc1ccc(NS(=O)(=O)c2ccc3ncn(NS(=O)(=O)c4ccc(I)cc4)c(=O)c3c2)cc1 , GI50 reported as > 100 µM (inactive)

Entry O=C1CC[C@@]2(O)[C@H]3Cc4ccc(-c5ccccc5)c5c4[C@@]2(CCN3CC2CC2)[C@H]1O5 , GI50 reported as 25.5 µM (inactive)

Entry COc1ccc(C[C@@H]2CN(C(=O)c3ccccc3)[C@H](Cc3ccc(O)cc3)CN2C(=O)c2ccccc2)cc1Br , GI50 reported as > 100 µM (inactive)

---

system: SF-268; test: NCI tumour cell line growth inhibition, 48 h
The source made the active and inactive calls. No stated cut-off is given here; in the data, active = GI50 up to about 1.1 µM and inactive = higher.
Outcome field: choose from active, inactive

Field: example entries. Status: answers known.
> print(dat)
                                    molecule  category.label
 1        Cc1nc(-c2ccccc2)c(C)n2c1nc1ccccc12        inactive
 2  O=C1c2cc3c(cc2CC1Br)CCC3 (configuration not stated)        inactive
 3                   CC(=O)NCCSC(=O)c1ccccc1          active
 4  C=C1CC(Cn2cc(Br)c(=O)[nH]c2=O)(c2ccc(-c3ccccc3)cc2)OC1=O (configuration not stated)        inactive
 5        Cc1cc(C)nc(NC(=O)COc2ccc(Cl)cc2)c1        inactive
 6              C=C(CN(C)C)C(=O)c1ccc(OC)cc1        inactive
 7          Cc1ccc([S@+]([O-])c2occc2C=O)cc1        inactive
 8  CC(C)(C)OC(=O)N1C(C2=COc3ccccc3O2)=COc2ccccc21        inactive
 9  COc1cccc(/C=C2\S/C(=N/Nc3nc(C)c(C)s3)NC2=O)c1O        inactive
10             O=C(/C=C/c1ccccc1O)c1ccccc1Cl        inactive

Prompt: Kindly provide the recorded test outcome for the following molecule: Cc1cccc2c(N)c3cccc(C(=O)NCC[N+](C)(C)Cc4c([N+](=O)[O-])ncn4C)c3nc12
Response: inactive

Prompt: Kindly provide the recorded test outcome for the following molecule: N=C(c1cccs1)C1(N2CCCCC2)CCCCC1
Response: inactive

---

test system: KM12; assay: NCI tumour cell line growth inhibition, 48 h
The source made the active and inactive calls. No stated cut-off is given here; in the data, active = GI50 up to about 1.1 µM and inactive = higher.
outcome_measure: GI50

Entry Cc1cc(N(CCC#N)CCC#N)ccc1/N=N/c1ccc(S(N)(=O)=O)cc1 , GI50 reported as > 100 µM (inactive)

Entry NCC1OC(n2cnc3c(=O)[nH]c(N)nc32)C(O)C1O (configuration not stated) , GI50 reported as > 100 µM (inactive)

---

tested on: SF-295; experiment: NCI tumour cell line growth inhibition, 48 h
Active and inactive are the calls of the source. Cut-off read from the data, not from the text of the source: active = GI50 up to about 1.1 µM and inactive = higher.
Outcome field: choose from active, inactive

> print(dat)
                           compound  category.label
1  CN(C)CCCc1c2ccccc2nc2ccc(Cl)cc12        inactive

Prompt: Kindly provide the recorded test outcome for the following compound: COc1cc2c3c(c1OC)C(=O)C(=O)C1=C3N(CCC1)CC2
Response: inactive

Prompt: Kindly provide the recorded test outcome for the following compound: CC(C)(C)[Si](C)(C)OCC1OC(n2ccc(=O)[nH]c2=O)C(O[Si](C)(C)C(C)(C)C)[C@@]12O[C@H]2C(N)=O (stereo not given in full)
Response: inactive

Prompt: Kindly provide the recorded test outcome for the following compound: CCOc1ccc(NCc2cc(OC)c(OC)c(OC)c2)cc1
Response: active

Prompt: Kindly provide the recorded test outcome for the following compound: COC(=O)CC1C2(C)C3=C(C)C(c4ccoc4)CC3OC2C2OC(=O)C3(C)C=CC(=O)C1(C)C23 (stereo not given)
Response: inactive
